Origin of the recorded values: paper PMC5540273

Test system: ADCK3;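 also: KINOMEscan kinase panel screen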
Construct: gene CABC1
Conditions: concentration: 1 μM,replicates: in singlicate; n = 1
value_kind: %Inh
// return the numeric value with its unit appended

Would you please look over these solved cases?
| compound | value_kind | obs_value |
| --- | --- | --- |
| COc1ccc(Nc2nccc(N3CCC(NC(=O)c4cccc(C#N)c4)C3)n2)cc1 (centres unmarked) [GSK1379730] | %Inh | 0% |
| COc1cc2nccc(Nc3ccc(Oc4ccccc4)cc3)c2cc1OC.Cl [GI261656] | %Inh | 5% |
| Cc1ccc(C(=O)Nc2ccc(Oc3ccc4nc(NC(=O)C5CC5)cn4c3)c(F)c2)c(=O)n1-c1ccccc1 | %Inh | 13% |

Give %Inh for each listed item.
1. CCCC(=O)Nc1n[nH]c2ncccc12 [SB-601436]
2. Cl.Cl.NC[C@H](CC1CCCCC1)NC(=O)c1ccc(-c2ccnc3[nH]ccc23)s1 [GSK1581428]
3. C[C@@H](Oc1cc(-n2cnc3cc(-c4cnn(C)c4)ccc32)sc1C(N)=O)c1ccccc1Cl [GSK580432]
4. O=C(Nc1n[nH]c2cc(-c3ccco3)ccc12)C1CC1 [SB-737447]

1: 0%; 2: 13%; 3: 13%; 4: 8%

Which %Inh is reported for this compound? `O=C(Nc1ccc(Oc2ccc3nc(NC(=O)C4CC4)cn3n2)c(F)c1)c1cccn(-c2ccccc2)c1=O`
16%
